system: NCI-H522 lung; assay: NCI tumour cell line growth inhibition, 48 h; in the data active means GI50 below about 0.43 µM; inactive means the rest
// allowed return values: yes (1) for active, no (0) for inactive

[[record]]
molecule = "N.N.N.N.N.NC(=O)[O-].[Co+3].[I-]"
class_name = "no (0)"


Entry O=C(CCl)NCCNc1nccc(Nc2ccc(S(=O)(=O)Nc3ccccn3)cc2)n1 : call = ? no (0)

Entry CCCCC(CCCCCC(CCCC)NCc1ccc2c(c1)OCO2)NCc1ccc2c(c1)OCO2 (configuration not stated) : call = ? no (0)

Entry CC(=O)/C(=C/c1ccccc1)C(=O)CC(C)C : call = ? no (0)

Entry O=C(CC1(O)C(=O)N(Cc2ccccc2)c2ccc(Cl)cc21)c1ccc(C(=O)NCC2CCC3(CC2)OOC2(CCCCC2)OO3)cc1 (configuration not stated) : call = ? yes (1)

Entry O=C(Nc1ccc(Cc2ccccc2)cc1)Nc1nn(C(=O)Nc2ccc(Cc3ccccc3)cc2)c2ccccc12 : call = ? no (0)

Entry C=C(CN1CCN(c2ccc(C(F)(F)F)cc2)CC1)c1ccc(C(=O)Nc2ccccc2N)cc1 : call = ? no (0)

Entry C=C1C(=O)O[C@H]2[C@H]1CC/C(COC(=O)NCc1c[nH]c3ccccc13)=C\CC[C@@]1(C)O[C@@H]21 : call = ? no (0)

Entry CCCCOC(=O)c1ccc(N)cc1 : call = ? no (0)

Entry COC1C(O)CC(OC2CC(OC3CC(O[C@@H]4C(=O)c5c(cc6cc(OC7CC(OC8CC(O)C(O)C(C)O8)C(O)C(C)O7)c(C)c(O)c6c5O)CC4[C@H](OC)C(=O)O)OC(C)C3O)OC(C)C2O)OC1C (some centres not stated) : call = ? no (0)

Entry CSCS(=O)C[C@H](CO)NC(=O)/C=C/c1c(C)[nH]c(=O)[nH]c1=O (some centres not stated) : call = ? no (0)

Entry CC1=CC(C)=NN=C(N)N1S(=O)(=O)c1cc(C)c(Cl)cc1SCc1ccccc1 : call = ? no (0)

Entry Cn1c(=O)c(Oc2ccc(F)cc2F)cc2cnc(NC(C)(C)CO)nc21 : call = ? no (0)

Entry COc1ccc(C=Nc2c(C(=O)Nc3cccc(Cl)c3C)sc3nc(C)c(C(=O)/C=C/c4ccc(OC)cc4)cc23)cc1 : call = ? yes (1)

Entry Cc1c(O)c(N=Nc2nc3ccccc3s2)c2ccccc2c1O : call = ? no (0)

Entry COc1cc2c(c(OC)c1OC)-c1ccc(O)cc1[C@@H](NC(C)=O)CC2 : call = ? yes (1)

Entry Cc1c(-c2ccc(C3CCCCC3)cc2)nc2ccc(F)cc2c1C(=O)O : call = ? no (0)

###

system: DU-145 prostate; test: NCI tumour cell line growth inhibition, 48 h
metric.name: GI50

[[record]]
compound = "Cc1c(O)c(N=Nc2nc3ccccc3s2)c2ccccc2c1O"
subject_of_test = "DU-145 prostate"
metric_name = "GI50"
readout_value = "23.4 µM"

[[record]]
compound = "O=C(CCl)NCCNc1nccc(Nc2ccc(S(=O)(=O)Nc3ccccn3)cc2)n1"
subject_of_test = "DU-145 prostate"
metric_name = "GI50"
readout_value = "2.45 µM"

[[record]]
compound = "COc1ccc(C#Cc2ccc(=O)oc2-c2cc(OC)c(OC)c(OC)c2)cc1O"
subject_of_test = "DU-145 prostate"
metric_name = "GI50"
readout_value = "8.96 µM"


Give DU-145 prostate GI50 for CC(=O)O[C@H]([C@H](OC(C)=O)[C@H](C)OC(C)=O)[C@@H](/C=C/[C@@H]1CC=CC(=O)O1)OC(C)=O 37.9 µM

Give DU-145 prostate GI50 for COC(=O)C1=C(O)[C@H](C(=O)OC)C2(O)C(C(=O)OC)[C@H](c3ccc(OC(=O)C(C)c4ccccc4)cc3)C[C@@H]1[C@@H]2C(=O)OC (stereo not given in full) 20.6 µM

Give DU-145 prostate GI50 for COc1ccc2c(c1)c(-c1nc(-c3c[nH]c4ncccc34)cs1)cn2CCCN1CCCCC1 1.65 µM

Give DU-145 prostate GI50 for Oc1ccc(Nc2ccc3ccccc3c2)cc1 4.87 µM

Give DU-145 prostate GI50 for COc1ccc(C=Nc2c(C(=O)Nc3cccc(Cl)c3C)sc3nc(C)c(C(=O)/C=C/c4ccc(OC)cc4)cc23)cc1 0.638 µM

Give DU-145 prostate GI50 for COC1C(O)CC(OC2CC(OC3CC(O[C@@H]4C(=O)c5c(cc6cc(OC7CC(OC8CC(O)C(O)C(C)O8)C(O)C(C)O7)c(C)c(O)c6c5O)CC4[C@H](OC)C(=O)O)OC(C)C3O)OC(C)C2O)OC1C (stereo not given in full) 1.96 µM

Give DU-145 prostate GI50 for CCN1CCC(Nc2ccnc3cc(Cl)ccc23)CC1 36.5 µM

Give DU-145 prostate GI50 for CC/C=C\C[C@H](F)C/C=C1/C(=O)C=C[C@@H]1C/C=C\CCCC(=O)OC 3.17 µM

Give DU-145 prostate GI50 for C=C1C(=O)O[C@H]2[C@H]1CC/C(COC(=O)NCc1c[nH]c3ccccc13)=C\CC[C@@]1(C)O[C@@H]21 2.35 µM

Give DU-145 prostate GI50 for Nc1ccc2[nH]c(-c3cccc(C(F)(F)F)c3)cc(=O)c2c1 43.6 µM

Give DU-145 prostate GI50 for CN(C)CCCN(CCC1CCCCC1)CCC1CCCCC1 5.56 µM

Give DU-145 prostate GI50 for CCCCOC(=O)c1ccc(N)cc1 > 100 µM
